- Target Desc: PARP-1 F2 K141I/K142I (Homo sapiens, UniProt P09874 103-214, K141I;K142I)
- Sequence (P09874 103-214 K141I/K142I): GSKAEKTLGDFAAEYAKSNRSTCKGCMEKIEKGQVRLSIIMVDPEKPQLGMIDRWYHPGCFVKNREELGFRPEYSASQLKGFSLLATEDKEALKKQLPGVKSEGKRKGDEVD
- Procedure Text: fluorescence anisotropy; 25 mM NaCl, one-site fit; 50 mM Tris-HCl pH 7.0, 150 uM ZnSO4, 4 mM DTT, 25 C; NaCl 0-200 mM (T2, as in cof; 10 nM DNA) or 25 mM (T3 mutants; 25 nM DNA)
- Test Context: protein: recombinant; label: fluorescein-dT at T8; single-chain dumbbell, 18 bp with central nick, two tetraloops
Readout Kind: pKd
Quick note: pKd means taking -log10 of the concentration in moles per liter.

Exam item: For the binder shown here, CGGTCGATCGTAAGATCGACCGGCGCTGGAGCTTGCTCCAGCGC (structured_DNA, 5'-phosphate) [44-nt nicked dumbbell, 5'-phosphate, fluorescein-dT] , give the reported pKd.
Marked response: 5.41
